Data provenance: patent EP1019398B1

# Test system: Human tumor cells
# protocolDescription: Soft Agar Assay (anchorage-independent growth, colony count after MTT staining)
# Assay type: cell-based
# settings: 0.3% agarose top layer over 0.6% agarose, 10-16 days at 37°C under 5% CO2
measure: IC50 (nM)
Give bare numbers, in nM.

QUERY: Need IC50 of O=C(CC1CCOCC1)N1CCC(C2c3c(Br)cc(Cl)cc3CCc3cc(Br)c[n+]([O-])c32)CC1 (stereo not shown) , thanks.
RESULT: 8
